# System: EKVX NSCLC
# testName: NCI tumour cell line growth inhibition, 48 h
measurementType: TGI

Look over these answered cases.
CC(C)c1cc2c(cc1S(=O)(=O)O)[C@@]1(C)CCC[C@@](C)(C(=O)O)C1CC2 (some centres not stated)
> 100 µM
O=C(Cc1ccc(O)c(O)c1)NCc1c[nH]c2ccccc12
> 100 µM
CC1(C)O[C@H]2OC(CO[Si](C)(C)C(C)(C)C)C(N=[N+]=[N-])[C@H]2O1 (some centres not stated)
39.3 µM

API: value(readout= TGI, system= EKVX NSCLC, query= `CCCCCCCC/C=C\CCCCCCCCCCCC(=O)O` ) 92.8 µM

Also check `O=CNc1ccc2c(c1)C(=O)c1ccccc1-2` 43.1 µM

Also check `COc1ccc(/C=N/NC(=O)c2cccc3cc[nH]c23)cc1O` > 100 µM

###

Listed compounds paired with reported TGI
# Tested on: SF-295 CNS
# testName: NCI tumour cell line growth inhibition, 48 h

Look over these answered cases.
COC[C@H]1Cn2cc(-c3nc(Nc4ccnn4C)ncc3C)nc2C(=O)N1Cc1ccc(F)c(F)c1
> 100 µM
O=C(/C=C/c1ccc2c(c1)OCO2)c1ccc(O)cc1
32.6 µM
O=C(/C(=C/c1ccc([N+](=O)[O-])cc1)SCc1ccccc1)c1ccc(Cl)cc1
18.9 µM

Can you share its TGI? I mean this compound: `C[C@]12CC[C@H](O)CC1=CC[C@@H]1[C@@H]2CC[C@]2(C)C(=N/N)/C(=N\O)C[C@@H]12` > 100 µM

###

# Tested on: MOLT-4 leukemia
# testName: NCI tumour cell line growth inhibition, 48 h
We use 30 µM as the dividing line for TGI: on or above the line is YES, below is NO.

Here's what some known entries look like.
CCC(=O)NCC1CCCN2CCCCC12 (centres undefined)
YES
O=C(Cc1ccc(O)c(O)c1)NCc1c[nH]c2ccccc12
YES
Nc1nc2c(c(-c3cccc(Cl)c3)n1)COC/C2=C\c1cccc(Cl)c1
YES
COC(=O)[C@@H](O)[C@](O)(CCC(C)C)C(=O)O[C@@H]1C(OC)=C[C@]23CCCN2CCc2cc4c(cc2[C@H]13)OCO4
NO
COc1ccc(-c2cn[nH]c2-c2cc(OC)c(OC)c(OC)c2)cc1
NO
Cn1c(=O)c2c(nc3n2CC(C(=O)O)N3)n(C)c1=O (centres undefined)
NO
Oc1ccc(-c2nc3ccc(Br)cc3s2)cc1
YES
C[C@]12CCC3c4ccc(O)cc4CCC3C1CC[C@@]2(O)CNC(=O)/C=C/c1ccc(O)c(O)c1 (some centres undefined)
YES

Given the entry `CCN(Cc1ccc(F)cc1)c1cc(Cl)c(CO)c(Cl)c1` , answer whether its TGI meets or surpasses 30 µM. YES

Also check COC(=O)C1CC(C=[N+](C)C)=C(SC)N1C(=O)OCc1ccccc1 (centres undefined) YES

Also check O=C(C1OC1c1ccc(Br)cc1O)C12CC3CC(CC(C3)C1)C2 (centres undefined) YES

Also check `Nc1n[nH]c2cccc(C#Cc3cccc(C(=O)Nc4ccc(CN5CCOCC5)c(C(F)(F)F)c4)c3)c12` NO

Also check `Cc1cc2c(C)[nH]nc2c(C(=O)O)c1C` YES

Also check `C=C1C(=O)O[C@H]2[C@H]1CC/C(COC(=O)NCc1ccc(Cn3c(=O)sn(-c4ccc(OC)cc4)c3=O)cc1)=C\CC[C@@]1(C)O[C@@H]21` NO

###

Listed molecules paired with reported TGI
# System: MDA-MB-435
# testName: NCI tumour cell line growth inhibition, 48 h
Just the number in µM, nothing appended.

Can you share its TGI? I mean this molecule: `S=C(N/N=C(/c1ccccc1)c1ccccn1)N(Cc1ccccn1)Cc1ccccn1` 3.56

Also check `[N-]=[N+]=NC(c1ccccc1)(c1ccccc1)c1ccccc1` 44

Also check `CCN(C(=O)N1CCN(c2cc3c(cc2F)c(=O)c(C(=O)O)cn3C2CC2)CC1)c1nc(-c2ccc(Cl)cc2)cs1` 7.03

Also check `CCCCCCCCCCn1cc[n+](C)c1` 8.64

###

# Test system: M14 melanoma
# testName: NCI tumour cell line growth inhibition, 48 h; in the data active = GI50 below about 0.43 µM; inactive = the rest
Give one outcome, nothing more. List: yes (1) (active), no (0) (inactive)

Here's what some known entries look like.
CCN1C(=O)N(c2ccccc2)C2NC(=S)N(/N=C/C=C/c3ccccc3OC)C21 (centres undefined)
yes (1)
C=C1C(=O)O[C@H]2[C@H]1CC/C(COC(=O)NCc1ccc(Cn3c(=O)sn(-c4ccc(OC)cc4)c3=O)cc1)=C\CC[C@@]1(C)O[C@@H]21
no (0)
Nc1ccccc1SC(CC(=O)c1ccccc1)c1cccc([N+](=O)[O-])c1 (centres undefined)
no (0)

Query: recorded result category for `Nc1n[nH]c2cccc(C#Cc3cccc(C(=O)Nc4ccc(CN5CCOCC5)c(C(F)(F)F)c4)c3)c12` in this test no (0)

###

Listed compounds paired with reported TGI
# Test system: MDA-MB-231 breast
# testName: NCI tumour cell line growth inhibition, 48 h

Look over these answered cases.
COc1nncc2[nH]c(-c3ccccc3)cc12
> 100 µM
Cc1csc(-c2nnc(Nc3ccc(Oc4ncccc4-c4ccnc(N)n4)cc3)c3ccccc23)c1
> 100 µM
C[C@]12CCC3c4ccc(O)cc4CCC3C1CC[C@@]2(O)CNC(=O)/C=C/c1ccc(O)c(O)c1 (some centres undefined)
16.4 µM
CC(=O)N(C(=O)CC(=O)N1N=C(c2ccccc2)C(N=Nc2ccccc2[N+](=O)[O-])C1=O)c1ccc(Cl)cc1 (centres undefined)
> 10 µM
CCC(=C/[C@H](C)C/C=C/C(C)=C/[C@@H](C)C(=O)[C@@H](C)[C@H](O)[C@@H](C)CC)/C=C/[C@H]1OC(=O)C=C[C@@H]1C
2.18 µM

Can you share its TGI? I mean this compound: `Nn1c(Nc2ccc(S(=O)(=O)Nc3ncccn3)cc2)nnc(/C=C/c2c(O)ccc3ccccc23)c1=O` 71 µM

Also check `O=C(/C(=C/c1ccc([N+](=O)[O-])cc1)SCc1ccccc1)c1ccc(Cl)cc1` 10.2 µM

Also check `C=C1CCN2CC[C@@H](OC(=O)/C(C)=C\C)[C@@H]12` > 100 µM

Also check `Nc1nc2c(c(-c3cccc(Cl)c3)n1)COC/C2=C\c1cccc(Cl)c1` > 100 µM

###

# Tested on: OVCAR-3 ovarian
# testName: NCI tumour cell line growth inhibition, 48 h
Listed molecules paired with reported TGI

Can you share its TGI? I mean this molecule: `Nc1c(-c2ccc(Cl)c(Cl)c2)c2ccc([N+](=O)[O-])cc2c(=O)n1-c1nc2ccccc2s1` > 100 µM

Also check `S=C(N/N=C(/c1ccccc1)c1ccccn1)N(Cc1ccccn1)Cc1ccccn1` 1.71 µM

Also check `COc1cc(-c2ccc3cc(OC)c(OC)c(OC)c3c2)cc(OC)c1OC` > 100 µM

Also check COc1ccc2nc3cc(Cl)ccc3c(NCCNCC(C)O)c2c1 (stereo not drawn) 8.04 µM

Also check `Cc1ccc(/C=C/C(=O)c2cccc3ccccc23)cc1` 31.7 µM

Also check `c1ccc(NCn2cnc3ccccc32)cc1` > 100 µM

###

# Tested on: DU-145 prostate
# testName: NCI tumour cell line growth inhibition, 48 h
Listed compounds paired with reported TGI
Just the number in µM, nothing appended.

Look over these answered cases.
CN(C)c1cc(NN=C(c2ccc(O)cc2)c2ccc(O)cc2)c([N+](=O)[O-])cc1[N+](=O)[O-]
23.6
CCN(CC)CCNC(=O)c1cc2cc(NC(=O)c3cc4cc([N+](=O)[O-])ccc4[nH]3)ccc2[nH]1
31.8
Cc1cc(-c2nc3ccc(F)cc3s2)ccc1NC(=O)[C@H](C)N
26
N#CC(C#N)=C/C=C(\Sc1nc2ccccc2s1)c1ccc(Cl)cc1
17.1

Alright, here's another compound for you.
API: value(readout= TGI, system= DU-145 prostate, query= Nc1ccccc1SC(CC(=O)c1ccccc1)c1cccc([N+](=O)[O-])c1 (stereo not given) ) 28

###

# Test system: HL-60(TB) leukemia
# testName: NCI tumour cell line growth inhibition, 48 h
Listed molecules paired with reported TGI

COP(=O)(OC)C1=c2c(C)noc2=C2C=COC2C1=O (stereo unspecified)
> 100 µM
COc1ccc2cc1Oc1ccc(cc1)C[C@H]1c3cc(c(OC)cc3CCN1C)Oc1c(O)c(OC)cc3c1[C@H](C2)N(C)CC3
48.2 µM
COC(=O)C(CCCN1C(=O)c2ccccc2C1=O)C(=O)OC
> 100 µM

Can you share its TGI? I mean this molecule: `Cc1ccc(-c2csc(=Nc3ccccc3)n2NC(=O)c2ccncc2)cc1` > 69.2 µM

###

# Test system: SN12C renal
# testName: NCI tumour cell line growth inhibition, 48 h
measurementType: TGI

Look over these answered cases.
N#C/C(=C\c1cccc(Cl)c1Cl)c1ccccc1
> 100 µM
Cc1cc(C)nc(NS(=O)(=O)c2ccc(NC(=O)c3ccc4nc5ccccc5c(Nc5ccc(S(N)(=O)=O)cc5)c4c3)cc2)n1
> 100 µM
COc1cc(C2CC(C)(O)Oc3cc4c(cc32)OCO4)cc(OC)c1OC (stereo unspecified)
> 100 µM
CCOC(=O)Nc1sc2c(c1C#N)CCCC2
> 100 µM
O=C(N/N=C/c1ccc(Cl)cc1)c1c(Cl)c(Cl)c(Cl)c(Cl)c1-c1nc2ccccc2[nH]1
> 100 µM

API: value(readout= TGI, system= SN12C renal, query= CCOP(=O)(OCC)C(F)(F)c1ccc(CC(NC(=O)OC(C)(C)C)C(=O)O)cc1 (stereo unspecified) ) > 10 µM

Also check COP(=O)(OC)C1=c2c(C)noc2=C2C=COC2C1=O (stereo unspecified) > 100 µM

Also check `COC(=O)[C@@H](O)[C@](O)(CCC(C)C)C(=O)O[C@@H]1C(OC)=C[C@]23CCCN2CCc2cc4c(cc2[C@H]13)OCO4` 10.3 µM

Also check `Cc1cc(I)cc(CN(CCCN(C)C)C(C)C)c1O` > 100 µM

Also check `CC(=O)Nn1c(=S)[nH]c2ccccc21` > 100 µM
